Kindly state Total Cell Count for each of the entries shown.
- Test system: Fibroblast
- assay comment: Multiplex assay against human fibroblast
- Format: toxicity, cell-based
- measurement context: 12 h, 1 µM, compound concentration 1 uM, replicate 2
Respond with the number and no other words.

In: I would be grateful if you could share the reported Total Cell Count for CCC(=O)OCC(=O)[C@@]1(OC(=O)CC)[C@@H](C)C[C@H]2[C@@H]3CCC4=CC(=O)C=C[C@]4(C)[C@@]3(Cl)[C@@H](O)C[C@@]21C [BECLOMETHASONE DIPROPIONATE] .
Out: 155

In: Now give it for O=C(NCCNCC(O)COc1ccc(O)cc1)N1CCOCC1.O=C(NCCNCC(O)COc1ccc(O)cc1)N1CCOCC1.O=C(O)/C=C/C(=O)O (configuration not stated) [XAMOTEROL FUMARATE] too.
Out: 167

In: Thanks! And Cc1nn(C)c2nc(NNC(=O)Nc3cc(Cl)nc(Cl)c3)cc(C(C)C)c12 ?
Out: 179

In: Next entry: CN(C)C/C=C/C(=O)Nc1ccc(C(=O)N2CCCC(Nc3ncc(Cl)c(-c4c[nH]c5ccccc45)n3)C2)cc1 (configuration not stated)
Out: 182

In: Same lookup for CCCCC[C@H](O)/C=C/[C@H]1[C@H](O)CC(=O)[C@@H]1CCCCCCC(=O)O , please.
Out: 169

In: Same thing, different molecule: CC(F)(F)CN1CCOc2c(nn(-c3ccccc3Cl)c2-c2ccc(Cl)cc2)C1=O
Out: 122

In: Same lookup for COC(c1ccccc1)(c1ccccc1)[C@H](Oc1nc(C)cc(C)n1)C(=O)O , please.
Out: 163

----------
- System: Fibroblast
- assay comment: Multiplex assay against human fibroblast
- Format: toxicity, cell-based
- measurement context: 24 h, 10 µM, compound concentration 10 uM, replicate 1
endpoint: Population Apoptotic (%)
I only need the number, in %, no unit after it.

In: Fill in the blank: the reported Population Apoptotic (%) of CN1C[C@H](C(=O)N[C@]2(C)O[C@@]3(O)[C@@H]4CCCN4C(=O)[C@H](Cc4ccccc4)N3C2=O)C[C@@H]2c3cccc4[nH]cc(c34)C[C@H]21.CS(=O)(=O)O [DIHYDROERGOTAMINE MESYLATE] is ____.
Out: 55

In: // query: COc1ccc2[nH]c(I)c(CCNC(C)=O)c2c1 [IODOMELATONIN]
Out: 35

In: And the next one, O=C(Nc1cc(-c2ccccc2)nn1-c1ccccc1F)c1ccc([N+](=O)[O-])cc1 ?
Out: 26

In: Similarly, CCC(=O)OCC(=O)[C@@]1(OC(=O)CC)[C@@H](C)C[C@H]2[C@@H]3CCC4=CC(=O)C=C[C@]4(C)[C@@]3(Cl)[C@@H](O)C[C@@]21C [BECLOMETHASONE DIPROPIONATE] ?
Out: 40

----------
Kindly state Population Membrane Permeable-Phenotype (%) for each of the entries shown.
- System: Fibroblast
- assay comment: Multiplex assay against human fibroblast
- Type: toxicity, cell-based
- measurement context: 48 h, 1 µM, compound concentration 1 uM, replicate 1
Non-standard residues stand in square brackets, D forms with d. Residues, ends and D or L forms follow the SMILES beside them.
Return type: number; implicit unit %.

In: Test system Fibroblast; read-out Population Membrane Permeable-Phenotype (%); what value for OCCCNc1cc(-c2ccnc(Nc3cccc(Cl)c3)n2)ccn1 ?
Out: 1

In: And then CC(C)C[C@H](CO)Nc1nc(S[C@@H](C)c2ccccc2)nc2nc(N)sc12 , what is it?
Out: 1

In: Another compound: COc1cc2nc(N3CCN(C(=O)COc4c(OC)cccc4C(C)C)CC3)nc(N)c2cc1OC.Cl.Cl
Out: 0

In: What would you report for Nc1nc(CC(=O)Nc2ccc(CCNC[C@H](O)c3ccccc3)cc2)cs1 ?
Out: 2

In: Also need COc1c(Nc2ccc(S(C)(=O)=O)nc2C)ncnc1OC1CCN(C(=O)OC(C)C)CC1 , thanks.
Out: 0

In: Entry to check: CN(C)C/C=C/C(=O)Nc1ccc(C(=O)N2CCCC(Nc3ncc(Cl)c(-c4c[nH]c5ccccc45)n3)C2)cc1 (stereo not given)
Out: 2

In: Now try COCCCN1CCC(NC(=O)c2cc(Cl)c(N)c3c2OCC3)CC1 [PRUCALOPRIDE] .
Out: 2

In: Now give it for CC(C)(O)C(=O)N1CCN(c2ccc(C(F)(F)F)c(C3=C(c4c[nH]c5ccccc45)C(=O)NC3=O)c2)CC1 too.
Out: 0

In: // same read-out, input: CCn1c(-c2nc3cc(C(=O)N4CCCC(N)C4)ccc3n2C)cc2ccccc21.Cl (stereo not given)
Out: 1

In: Try this compound next: O=C(O)CCC/C=C\CC1C(O)CC(O)C1/C=C/C(O)COc1cccc(Cl)c1 (stereo not given)
Out: 2

In: Item: CC(C)C[C@@H]1NC(=O)[C@@H](C(C)C)NC(=O)[C@@H]2CCCN2C(=O)[C@@H](CC(=O)O)NC(=O)[C@@H](Cc2c[nH]c3ccccc23)NC1=O [BQ-123] (cyclo(L[dW][dD]P[dV]))
Out: 0

In: Then Cl.Cl.OCCOCCN1CCN(C(c2ccccc2)c2ccc(Cl)cc2)CC1 (stereo not given) [HYDROXYZINE HYDROCHLORIDE] ?
Out: 0

In: For Cc1cc(O)c(-c2ccc([C@@H](C)CN(C)C)cc2)c2c1[nH]c(=O)c1sccc12 then?
Out: 1

In: Record: CC(C)(C)c1ccc(CSc2cnn(C(C)(C)C)c(=O)c2Cl)cc1
Out: 0

In: Now the compound Cc1cc(=O)n(C)c2cc(N3C(=O)CC[C@H](NS(=O)(=O)CC(C)C)[C@H]3c3ccc(Cl)cc3)ccc12
Out: 1

----------
- Test system: HEK-293T
- assay comment: Multiplex assay against HEK293T
- Type: toxicity, cell-based
- measurement context: human, 12 h, 10 µM, compound concentration 10 uM, replicate 1
Doc: threshold 60% (exclusive). Items with Population Mitochondria Different-Phenotype (%) beneath it return Condition met; others return Condition not met.

In: Problem: For the molecule CC(C)C[C@H](CO)Nc1nc(S[C@@H](C)c2ccccc2)nc2nc(N)sc12 [AZD-8797] , is Population Mitochondria Different-Phenotype (%) under 60%?
Out: Condition not met

In: Record: Cc1c(Cc2ccc3ccccc3n2)c2cc(F)ccc2n1CC(=O)O [TIMAPIPRANT]
Out: Condition met

In: Repeat with O=C(Nc1cc(-c2ccccc2)nn1-c1ccccc1F)c1ccc([N+](=O)[O-])cc1
Out: Condition met

In: Same lookup for CN(C)C/C=C/C(=O)Nc1ccc(C(=O)N2CCCC(Nc3ncc(Cl)c(-c4c[nH]c5ccccc45)n3)C2)cc1 (centres undefined) , please.
Out: Condition not met

In: Another molecule to check: N[C@](CC1c2ccccc2Oc2ccccc21)(C(=O)O)[C@H]1C[C@@H]1C(=O)O
Out: Condition met

In: Next record, please: O=c1nc2[nH]c3ccccc3nc-2c(=O)[nH]1 [ALLOXAZINE]
Out: Condition met

In: Next molecule up: COc1ccc2[nH]c(I)c(CCNC(C)=O)c2c1 [IODOMELATONIN]
Out: Condition met

In: Param item: CN1CCN(c2ccc(Nc3c4ccccc4nc4ccccc34)cc2)CC1.Cl.Cl.O
Out: Condition not met

In: Follow-up entry: COc1c(Nc2ccc(S(C)(=O)=O)nc2C)ncnc1OC1CCN(C(=O)OC(C)C)CC1 [ADP-597]
Out: Condition not met

In: Would you mind doing Nc1nc(CC(=O)Nc2ccc(CCNC[C@H](O)c3ccccc3)cc2)cs1 [MIRABEGRON] as well?
Out: Condition met

In: Now the same for Cc1cc(O)c(-c2ccc([C@@H](C)CN(C)C)cc2)c2c1[nH]c(=O)c1sccc12
Out: Condition not met

In: Item: CN1CCC(C(=O)c2cccc(NC(=O)c3c(F)cc(F)cc3F)n2)CC1
Out: Condition met

In: Same for CN1CCN2c3ccccc3Cc3ccccc3C2C1.Cl (centres undefined) [MIANSERIN HYDROCHLORIDE]
Out: Condition met

In: Try the molecule Cc1nn(C)c2nc(NNC(=O)Nc3cc(Cl)nc(Cl)c3)cc(C(C)C)c12
Out: Condition not met

In: Likewise for Cc1cc(-c2ccc3c(c2)CC[C@H]3N2CC3(CCN(C(=O)Cc4cn5cc(C)sc5n4)CC3)C2)ncn1 [PF-5190457] ?
Out: Condition met

In: Another molecule to check: CSc1nc(NC2CCCC2)c([N+](=O)[O-])c(NC2CCCC2)n1 [GS-39783]
Out: Condition met

In: Another molecule to check: CCCCC[C@H](O)/C=C/[C@H]1[C@H](O)CC(=O)[C@@H]1CCCCCCC(=O)O [ALPROSTADIL]
Out: Condition met
